assay: chemical genetic growth profiling, strain panel (AID 1159580);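 also: tested at 20 µM; growth read once vehicle control cultures reached saturation at 30 °C; lower values mean less growth of the strain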; conditions: S. cerevisiae deletion strains, growth OD, locus YLR418C, strain cdc73
Screen size: about 5,500 compounds; about 2,000 (36%) were called active. Not shown: some 18% with an inconclusive outcome. Rule as the data show it: active = normalized growth mostly below about 0.91 (no sharp cut-off); inconclusive = no clear call, values can overlap the other calls; inactive = mostly above about 0.92. The list shows a part of the results.
Tick one outcome: active, inactive

# MOLECULE, ANSWER LABEL
rows = [
    ("CC(C)(C)NC[C@@H](O)COc1nsnc1N1CCOCC1", "inactive"),
    ("CC(=O)OC1CC(OC(C)=O)C2(C)C(CC(OC(C)=O)C3(C)C2CCC2(C)C(c4ccoc4)CC4OC423)C1(C)C (stereo not given)", "inactive"),
    ("CC1(C)C(O)CC(O)C2(C)C1CC(O)C1(C)C2CCC2(C)C(c3ccoc3)CC3OC321 (stereo not given)", "inactive"),
    ("O=C1O[C@H](C(O)CO)C(O)=C1O (stereo not given in full)", "inactive"),
    ("CC(Cc1ccc(O)c(O)c1)C(C)Cc1ccc(O)c(O)c1 (stereo not given)", "active"),
]

For this molecule, state the assay outcome: CN1C(CC(=O)c2ccccc2)CCCC1CC(O)c1ccccc1 (stereo not given)
inactive

Check the results log: what was the call for CCN(CC)CCNC(=O)c1cc(S(C)(=O)=O)ccc1OC ?
inactive
